- System: Spodoptera littoralis
- assay info: Contact toxicity in Spodoptera littoralis neonatal larvae assessed as mortality after 48 hrs
- Assay type: organism-based
- experimental setup: in vivo
Threshold 0.03 umol/dm'2. LC50 below it: 1. LC50 at it or above: -1.

Recorded results for 4 molecules are shown here.
1. CSC(=O)N(C)C(=O)Cc1ccccc1 [RITIGALIN]    -1
2. CNC(=O)/C=C/SC [PENANGIN]    -1
3. CSC(=O)N(C)/C=C\c1ccccc1 [DEHYDRONIRANIN B]    1
4. CS/C=C/C(=O)N(C)/C=C/c1ccccc1 [METHYLILLUKUMBIN A]    -1

# evaluate next
**Query** Lab log: compare recorded LC50 with 0.03 umol/dm'2; is it strictly lower for CSC(=O)N(C)/C=C/c1ccccc1 [DEHYDRONIRANIN A] ?
**Result** -1

src = ChEMBL document CHEMBL1158289
